biological target: UniProt P08912; assay: human M5 muscarinic receptor antagonists, cell-based, single concentration, CHO-K1 hM5, ACh EC80 (AID 743107); conditions: CHO-K1 hM5, calcium flux, at 10 µM
Sequence (P08912 whole entry, looked up): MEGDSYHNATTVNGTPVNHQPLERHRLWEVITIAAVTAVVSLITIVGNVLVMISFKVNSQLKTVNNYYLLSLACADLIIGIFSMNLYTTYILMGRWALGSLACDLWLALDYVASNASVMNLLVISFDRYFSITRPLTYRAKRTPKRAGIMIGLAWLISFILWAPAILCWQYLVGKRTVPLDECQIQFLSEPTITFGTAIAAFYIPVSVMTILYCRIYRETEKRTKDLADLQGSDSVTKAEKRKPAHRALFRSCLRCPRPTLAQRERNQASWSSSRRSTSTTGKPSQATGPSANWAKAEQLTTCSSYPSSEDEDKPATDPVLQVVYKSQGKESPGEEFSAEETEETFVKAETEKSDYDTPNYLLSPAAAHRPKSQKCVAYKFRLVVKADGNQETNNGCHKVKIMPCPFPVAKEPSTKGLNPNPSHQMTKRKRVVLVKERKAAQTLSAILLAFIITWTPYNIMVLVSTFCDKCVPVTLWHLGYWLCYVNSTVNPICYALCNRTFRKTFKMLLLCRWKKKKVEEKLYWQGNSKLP
Calls of active or inactive are those of the source.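 The calls were made as follows: active = compound leaving under 60% of the human M5 receptor calcium signal; inactive = the rest.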
Classes used: y = active, n = inactive

# COMPOUND, GROUP
measured = [
    ("Cc1ccccc1C(=O)NCc1cc(C(=O)N(C)C(C)c2ccccn2)no1 (centres undefined)", "n"),
    ("CC(=O)c1cccc(NCc2cc(C(=O)N(C)C(C)c3ccccn3)no2)c1 (centres undefined)", "y"),
    ("CC(=O)c1cccc(OCc2cc(C(=O)N(C)C(C)c3cccnc3)no2)c1 (centres undefined)", "n"),
    ("CC(=O)c1cccc(OCc2cc(C(=O)N(C)c3cccc4cccnc34)no2)c1", "n"),
    ("CC(O)c1cccc(OCc2cc(C(=O)N(C)C(C)c3ccccn3)no2)c1 (centres undefined)", "n"),
    ("CC(=O)c1ccccc1OCc1cc(C(=O)N(C)C(C)c2ccccn2)no1 (centres undefined)", "n"),
    ("CC(=O)c1cccc(N(Cc2cc(C(=O)N(C)C(C)c3ccccn3)no2)C(=O)c2ccccc2C)c1 (centres undefined)", "n"),
    ("CC(=O)c1cccc(OCc2cc(C(=O)NC(c3ccccn3)C(F)(F)F)no2)c1 (centres undefined)", "n"),
    ("CC(=O)c1cccc(N(Cc2cc(C(=O)N(C)C(C)c3ccccn3)no2)S(=O)(=O)c2ccccc2[N+](=O)[O-])c1 (centres undefined)", "n"),
    ("CCN(C(=O)c1cc(COc2cccc(C(C)=O)c2)on1)C(C)c1ccccn1 (centres undefined)", "y"),
    ("CC(c1ccccn1)N(C)C(=O)c1cc(COc2cccc(C=O)c2)on1 (centres undefined)", "n"),
    ("CC(c1ccccn1)N(C)C(=O)c1cc(CNC(=O)c2ccc(F)cc2)on1 (centres undefined)", "n"),
    ("Cc1ccc(C(=O)NCc2cc(C(=O)N(C)C(C)c3ccccn3)no2)cc1 (centres undefined)", "n"),
    ("CC(c1ccccn1)N(C)C(=O)c1cc(COc2cccc(C(F)(F)F)c2)on1 (centres undefined)", "n"),
    ("CC(c1ccccn1)N(C)C(=O)c1cc(COc2cccc(F)c2)on1 (centres undefined)", "n"),
    ("CC(=O)c1cccc(OCc2cc(C(=O)Nc3ccccn3)no2)c1", "n"),
    ("CC(=O)c1cccc(N(Cc2cc(C(=O)N(C)C(C)c3ccccn3)no2)C(=O)c2cccc(C)c2)c1 (centres undefined)", "n"),
    ("CC(=O)NCc1cc(C(=O)N(C)C(C)c2ccccn2)no1 (centres undefined)", "n"),
    ("CC(Cl)c1cccc(OCc2cc(C(=O)N(C)C(C)c3ccccn3)no2)c1 (centres undefined)", "n"),
    ("CC(c1ccccn1)N(C)C(=O)c1cc(COc2ccccc2F)on1 (centres undefined)", "n"),
    ("COc1ccccc1C(=O)N(Cc1cc(C(=O)N(C)C(C)c2ccccn2)no1)c1cccc(C(C)=O)c1 (centres undefined)", "n"),
    ("CC(=O)c1cccc(N(Cc2cc(C(=O)N(C)C(C)c3ccccn3)no2)C(=O)c2ccccc2)c1 (centres undefined)", "n"),
    ("CC(c1ccccn1)N(C)C(=O)c1cc(CNC(=O)c2cccc(F)c2)on1 (centres undefined)", "n"),
    ("CC(=O)c1cccc(OCc2cc(C(=O)N(C)C(C)c3ccncc3)no2)c1 (centres undefined)", "n"),
    ("CC(c1ccccn1)N(C)C(=O)c1cc(COc2cccc(Oc3ccccc3)c2)on1 (centres undefined)", "n"),
    ("CC(=O)c1cccc(OCc2cc(C(=O)NCc3ccccn3)no2)c1", "n"),
    ("CC(c1ccccn1)N(C)C(=O)c1cc(CNC(=O)C(C)(C)C)on1 (centres undefined)", "n"),
    ("Cc1ccccc1OCc1cc(C(=O)N(C)C(C)c2ccccn2)no1 (centres undefined)", "n"),
    ("CC(=O)c1ccc(OCc2cc(C(=O)N(C)C(C)c3ccccn3)no2)cc1 (centres undefined)", "n"),
]
